Reference source for all entries: paper doi:10.1101/2025.08.03.668247

Target: T1, GST-Egl512-819 (Drosophila melanogaster, UniProt Q9W1K4 512-819)
T1 sequence: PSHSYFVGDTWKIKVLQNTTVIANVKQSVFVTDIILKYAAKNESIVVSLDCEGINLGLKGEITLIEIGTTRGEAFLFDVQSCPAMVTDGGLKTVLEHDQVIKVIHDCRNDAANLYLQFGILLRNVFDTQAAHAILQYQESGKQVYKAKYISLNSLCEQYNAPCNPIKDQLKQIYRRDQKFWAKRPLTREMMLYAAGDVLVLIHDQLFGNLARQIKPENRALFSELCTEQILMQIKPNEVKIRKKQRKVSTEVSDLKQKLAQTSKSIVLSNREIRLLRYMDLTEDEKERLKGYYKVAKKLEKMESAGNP
Experiment: fluorescence anisotropy; FA: 20 mM HEPES-NaOH pH 7.5, 100 mM NaCl, 10% glycerol, 20 C, 10 nM FAM-RNA; competition: 150 nM Egl512-819 + 10 nM FAM-K10 TLS, same buffer
Settings: protein: recombinant; tags: N-terminal GST (TEV site); label: 5'-FAM
Items are presented alongside their recorded Kd.
Write the number in nM without appending the unit.

AUAUAUAUAUAUAUAUAUAU (ssRNA) [ssRNA (AU20)]
137

Let's switch to this binder now.
Qu. I would be grateful if you could share the reported Kd for UUUUUUUUUUUUUUUUUUUU (ssRNA) [ssRNA (U20)] .
Ans. 175
